- measurement.target: Metabotropic glutamate receptor 2 (Homo sapiens)
- Sequence (Q14416 whole entry): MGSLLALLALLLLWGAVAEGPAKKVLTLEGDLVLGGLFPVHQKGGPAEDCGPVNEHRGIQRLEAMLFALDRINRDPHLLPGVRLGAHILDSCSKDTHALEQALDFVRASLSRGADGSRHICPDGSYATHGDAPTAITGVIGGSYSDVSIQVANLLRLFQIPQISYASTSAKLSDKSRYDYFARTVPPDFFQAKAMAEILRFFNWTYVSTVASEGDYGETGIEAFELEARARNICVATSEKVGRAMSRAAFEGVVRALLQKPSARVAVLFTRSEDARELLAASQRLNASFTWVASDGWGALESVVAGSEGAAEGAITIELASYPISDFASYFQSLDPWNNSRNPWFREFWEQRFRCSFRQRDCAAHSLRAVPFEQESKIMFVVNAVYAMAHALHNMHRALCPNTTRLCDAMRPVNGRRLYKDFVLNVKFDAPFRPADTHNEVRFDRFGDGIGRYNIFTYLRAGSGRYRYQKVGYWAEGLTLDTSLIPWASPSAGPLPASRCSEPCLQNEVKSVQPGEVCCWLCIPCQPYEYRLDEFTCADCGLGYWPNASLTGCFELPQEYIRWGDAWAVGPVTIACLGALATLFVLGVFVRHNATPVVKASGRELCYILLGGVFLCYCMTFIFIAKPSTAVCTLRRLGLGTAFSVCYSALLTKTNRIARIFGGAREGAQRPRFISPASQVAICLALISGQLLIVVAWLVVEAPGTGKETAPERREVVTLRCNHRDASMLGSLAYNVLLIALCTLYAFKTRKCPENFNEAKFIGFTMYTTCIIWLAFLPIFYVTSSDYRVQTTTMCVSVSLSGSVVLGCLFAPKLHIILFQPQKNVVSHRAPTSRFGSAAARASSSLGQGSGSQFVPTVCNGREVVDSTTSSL
- assay.comment: Positive allosteric modulation at mGluR2 (unknown origin)
endpoint: EC50

INSERT INTO assay_data (structure_smiles, endpoint, endpoint_value) VALUES
  ('O=c1n(-c2ccc(F)cc2)ccc2nc(COc3ccccc3)cn12', 'EC50', '> 10 µM');

// moving on: another record for EC50
Tell me its EC50 given O=C1N(c2ccc(F)cc2)CCc2nc(COc3ccccc3)cn21 as the entry.
> 10 µM

---

- assay.comment: Drug metabolism in human liver microsomes assessed as compound metabolized at 1 uM after 15 mins
- Assay type: ADME
- test.parameters: read-out: Drug metabolism
endpoint: metabolised at 0.25 h, 1 µM
Number plus unit, in that order.

INSERT INTO assay_data (structure_smiles, endpoint, endpoint_value) VALUES
  ('Cc1cc(N2CCc3nc(COc4ccccc4)cn3C2=O)ccc1F', 'metabolised at 0.25 h, 1 µM', '10%'),
  ('O=c1n(-c2ccc(F)cc2)ccc2nc(COc3ccccc3)c(Cl)n12', 'metabolised at 0.25 h, 1 µM', '6%'),
  ('Cc1cc(-n2ccc3nc(COc4ccccc4)cn3c2=O)ncc1F', 'metabolised at 0.25 h, 1 µM', '17%');

Attention now shifts to the item below.
Return reported metabolised at 0.25 h, 1 µM. Input compound: Cc1cn(-c2ccc(F)cc2)c(=O)n2cc(COc3ccccc3)nc12
36%

---

- measurement.target: Metabotropic glutamate receptor 1 (Homo sapiens, UniProt Q13255)
- Sequence (Q13255 whole entry): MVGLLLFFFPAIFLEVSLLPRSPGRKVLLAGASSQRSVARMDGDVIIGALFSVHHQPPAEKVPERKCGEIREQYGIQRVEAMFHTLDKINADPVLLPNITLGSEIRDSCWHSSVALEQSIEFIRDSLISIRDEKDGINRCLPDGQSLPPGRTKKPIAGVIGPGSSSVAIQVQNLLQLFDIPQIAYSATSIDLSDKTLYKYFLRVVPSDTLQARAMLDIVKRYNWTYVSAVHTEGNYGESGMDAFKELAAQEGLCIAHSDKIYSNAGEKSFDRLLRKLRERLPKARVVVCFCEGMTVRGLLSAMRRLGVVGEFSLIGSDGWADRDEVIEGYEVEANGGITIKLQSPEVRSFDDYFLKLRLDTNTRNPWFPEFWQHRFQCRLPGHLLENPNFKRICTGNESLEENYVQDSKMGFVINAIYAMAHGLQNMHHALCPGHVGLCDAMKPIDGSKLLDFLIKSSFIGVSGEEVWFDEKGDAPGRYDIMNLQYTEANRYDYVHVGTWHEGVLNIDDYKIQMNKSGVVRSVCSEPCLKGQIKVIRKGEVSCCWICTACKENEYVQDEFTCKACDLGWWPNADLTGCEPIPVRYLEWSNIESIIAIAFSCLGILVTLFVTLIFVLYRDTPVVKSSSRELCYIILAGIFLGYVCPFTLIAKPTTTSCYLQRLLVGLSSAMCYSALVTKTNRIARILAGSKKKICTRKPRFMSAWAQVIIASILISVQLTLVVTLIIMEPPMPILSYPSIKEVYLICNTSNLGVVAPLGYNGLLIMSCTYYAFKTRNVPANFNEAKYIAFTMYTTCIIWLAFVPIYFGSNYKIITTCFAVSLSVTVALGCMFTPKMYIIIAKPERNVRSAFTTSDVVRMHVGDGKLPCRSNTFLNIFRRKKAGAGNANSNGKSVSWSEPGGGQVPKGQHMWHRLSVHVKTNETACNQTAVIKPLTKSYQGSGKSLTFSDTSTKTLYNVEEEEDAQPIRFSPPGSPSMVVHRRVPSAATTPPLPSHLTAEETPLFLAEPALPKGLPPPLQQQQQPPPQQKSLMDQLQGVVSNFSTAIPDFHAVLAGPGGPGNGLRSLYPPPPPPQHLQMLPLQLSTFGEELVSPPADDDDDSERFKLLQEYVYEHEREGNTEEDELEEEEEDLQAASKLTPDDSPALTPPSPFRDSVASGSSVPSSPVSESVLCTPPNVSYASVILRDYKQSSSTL
- assay.comment: Positive allosteric modulation at mGluR1 (unknown origin)
endpoint: EC50

INSERT INTO results (structure_smiles, endpoint, endpoint_value) VALUES
  ('O=C1N(c2ccc(F)cc2)CCc2nc(COc3ccccc3)cn21', 'EC50', '> 10 µM');

Look up EC50 of O=c1n(-c2ccc(F)cc2)ccc2nc(COc3ccccc3)cn12 and report it.
> 10 µM

---

- measurement.target: Metabotropic glutamate receptor 5 (Rattus norvegicus) (UniProt P31424)
- Sequence (P31424 21-1203 limits assumed): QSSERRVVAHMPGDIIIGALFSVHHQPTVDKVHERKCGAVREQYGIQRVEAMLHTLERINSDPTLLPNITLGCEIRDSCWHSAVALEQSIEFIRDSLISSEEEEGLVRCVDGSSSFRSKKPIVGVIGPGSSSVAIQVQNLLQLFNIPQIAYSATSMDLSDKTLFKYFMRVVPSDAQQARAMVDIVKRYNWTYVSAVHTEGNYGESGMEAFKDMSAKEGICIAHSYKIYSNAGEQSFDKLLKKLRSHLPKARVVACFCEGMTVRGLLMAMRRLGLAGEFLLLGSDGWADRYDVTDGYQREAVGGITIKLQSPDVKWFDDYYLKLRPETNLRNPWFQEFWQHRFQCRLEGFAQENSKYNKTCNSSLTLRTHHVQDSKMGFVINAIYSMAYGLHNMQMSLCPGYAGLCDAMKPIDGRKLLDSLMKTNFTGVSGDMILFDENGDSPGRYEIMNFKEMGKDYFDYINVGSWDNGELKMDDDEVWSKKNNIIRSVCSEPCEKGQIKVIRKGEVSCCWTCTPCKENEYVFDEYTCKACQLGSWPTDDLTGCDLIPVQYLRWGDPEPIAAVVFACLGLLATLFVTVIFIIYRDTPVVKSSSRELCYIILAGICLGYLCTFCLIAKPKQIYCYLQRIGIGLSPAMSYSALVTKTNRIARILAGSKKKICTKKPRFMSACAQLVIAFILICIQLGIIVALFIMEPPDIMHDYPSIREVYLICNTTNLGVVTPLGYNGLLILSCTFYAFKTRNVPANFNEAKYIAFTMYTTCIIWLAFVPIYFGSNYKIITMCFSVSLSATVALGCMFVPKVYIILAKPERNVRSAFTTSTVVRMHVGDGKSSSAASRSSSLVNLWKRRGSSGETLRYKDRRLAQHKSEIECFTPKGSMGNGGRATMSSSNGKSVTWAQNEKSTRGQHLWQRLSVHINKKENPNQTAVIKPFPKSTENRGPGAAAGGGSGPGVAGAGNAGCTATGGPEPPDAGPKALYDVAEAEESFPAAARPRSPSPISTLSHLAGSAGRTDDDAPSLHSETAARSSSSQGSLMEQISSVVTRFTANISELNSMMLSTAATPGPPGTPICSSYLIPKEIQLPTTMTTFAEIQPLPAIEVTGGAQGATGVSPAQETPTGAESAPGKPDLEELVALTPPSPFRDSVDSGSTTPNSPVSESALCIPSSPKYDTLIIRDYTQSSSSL
- assay.comment: Positive allosteric modulation at rat mGluR5 expressed in HEK293 cells assessed as amplitude of response at 30 uM by calcium mobilization assay relative to glutamate
- Assay type: functional, cell-based
If the reported Emax equals or exceeds 80%, assign yes (1). If not, assign no (0).

INSERT INTO assay_data (structure_smiles, assigned_label) VALUES
  ('Cc1cccc(OCc2cn3c(=O)n(-c4ccc(F)cc4)ccc3n2)c1', 'no (0)'),
  ('Cc1ccnc(-n2ccc3nc(COc4ccccc4)cn3c2=O)c1', 'no (0)'),
  ('O=c1n(-c2ccc(F)cc2)ccc2nc(COc3ccccn3)cn12', 'yes (1)'),
  ('Cc1cc(N2CCc3nc(COc4ccccc4)cn3C2=O)ccc1F', 'yes (1)'),
  ('Cc1cc2nc(COc3ccccc3)cn2c(=O)n1-c1ccc(F)cc1', 'no (0)');

Decide: is the reported value of Emax for Cc1nc(-n2ccc3nc(COc4ccccc4)cn3c2=O)ccc1F equal to or greater than 80%?
no (0)

Evaluate O=C1N(c2ccc(F)cn2)CCc2nc(COc3ccccc3)cn21 : Emax at minimum 80%?
no (0)

Could you tell me if the measured Emax of Cc1cc(N2CCc3nc(COc4ccccc4)cn3C2=O)ncc1F reaches 80% or more?
yes (1)

Please indicate if the recorded Emax for O=c1[nH]ccc2nc(COc3ccccc3)cn12 meets or exceeds 80%.
no (0)

Answer whether Emax of Cn1ccc2nc(COc3ccccc3)cn2c1=O is greater than or equal to 80%.
no (0)

// inclusive: Emax at least 80%? input: O=c1n(-c2cccc(F)c2)ccc2nc(COc3ccccc3)cn12
no (0)

Please indicate if the recorded Emax for Cc1cccc(-n2ccc3nc(COc4ccccc4)cn3c2=O)n1 meets or exceeds 80%.
no (0)

Reported Emax reaches at least 80% for O=c1n(-c2ccc(F)cc2)ccc2nc(COc3ccccc3)cn12 ?
yes (1)

For this molecule, is measured Emax 80% or higher? Cc1cc(-n2ccc3nc(COc4ccccc4)cn3c2=O)ncc1F
no (0)

Quick check: does O=c1n(CC2CC2)ccc2nc(COc3ccccc3)cn12 have Emax greater than or equal to 80%?
no (0)

Assess whether reported Emax for Cc1ccc(-n2ccc3nc(COc4ccccc4)cn3c2=O)nc1 sits at 80% or higher.
yes (1)

Can O=C1N(c2ccc(F)cc2)CCc2nc(COc3ccccc3)cn21 be said to have Emax at or above 80%?
no (0)

Is the recorded value of Emax equal to or greater than 80% for this molecule? O=c1n(Cc2ccccc2)ccc2nc(COc3ccccc3)cn12
yes (1)

Identify whether the reported Emax of the following molecule is 80% or greater: Cc1nc(N2CCc3nc(COc4ccccc4)cn3C2=O)ccc1F
yes (1)

// inclusive: Emax at least 80%? input: O=C1N(c2ccc(F)cc2)CCc2nc(COc3ccc(F)cc3)cn21
yes (1)

Determine whether measured Emax meets or exceeds 80% for O=c1n(-c2ccc(F)cc2)ccc2nc(COc3ccc(F)cc3)cn12
yes (1)

Exam item: decide whether the reported Emax for Cc1cccc(OCc2cn3c(n2)CCN(c2ccc(F)cc2)C3=O)c1 is at least 80%.
no (0)

Is Emax at least 80%? Consider O=c1n(-c2ccc(F)cc2)ccc2nc(COc3cccnc3)cn12
no (0)

---

Recorded EC50 values for a group of compounds are listed next.
- measurement.target: Metabotropic glutamate receptor 4 (Homo sapiens, UniProt Q14833)
- assay.comment: Positive allosteric modulation at mGluR4 (unknown origin)

INSERT INTO results (structure_smiles, endpoint_value) VALUES
  ('O=c1n(-c2ccc(F)cc2)ccc2nc(COc3ccccc3)cn12', '> 10 µM');

We now examine a further compound.
Please look at this compound and report its EC50: O=C1N(c2ccc(F)cc2)CCc2nc(COc3ccccc3)cn21
> 10 µM

---

- assay.comment: Terminal half-life in rat at 1 mg/kg, iv and 10 mg/kg, po
- Type: ADME, organism-based
- test.parameters: in vivo, read-out: beta t1/2 (converted)
endpoint: half-life (min)
Supply the numeric figure in min, leaving out any unit text.

Let me know recorded half-life for O=C1N(c2ccc(F)cc2)CCc2nc(COc3ccccc3)cn21 , thanks.
55.8

---

This listing pairs compounds with measured pEC50.
- measurement.target: Metabotropic glutamate receptor 5 (Rattus norvegicus, UniProt P31424)
- Sequence (P31424 whole entry): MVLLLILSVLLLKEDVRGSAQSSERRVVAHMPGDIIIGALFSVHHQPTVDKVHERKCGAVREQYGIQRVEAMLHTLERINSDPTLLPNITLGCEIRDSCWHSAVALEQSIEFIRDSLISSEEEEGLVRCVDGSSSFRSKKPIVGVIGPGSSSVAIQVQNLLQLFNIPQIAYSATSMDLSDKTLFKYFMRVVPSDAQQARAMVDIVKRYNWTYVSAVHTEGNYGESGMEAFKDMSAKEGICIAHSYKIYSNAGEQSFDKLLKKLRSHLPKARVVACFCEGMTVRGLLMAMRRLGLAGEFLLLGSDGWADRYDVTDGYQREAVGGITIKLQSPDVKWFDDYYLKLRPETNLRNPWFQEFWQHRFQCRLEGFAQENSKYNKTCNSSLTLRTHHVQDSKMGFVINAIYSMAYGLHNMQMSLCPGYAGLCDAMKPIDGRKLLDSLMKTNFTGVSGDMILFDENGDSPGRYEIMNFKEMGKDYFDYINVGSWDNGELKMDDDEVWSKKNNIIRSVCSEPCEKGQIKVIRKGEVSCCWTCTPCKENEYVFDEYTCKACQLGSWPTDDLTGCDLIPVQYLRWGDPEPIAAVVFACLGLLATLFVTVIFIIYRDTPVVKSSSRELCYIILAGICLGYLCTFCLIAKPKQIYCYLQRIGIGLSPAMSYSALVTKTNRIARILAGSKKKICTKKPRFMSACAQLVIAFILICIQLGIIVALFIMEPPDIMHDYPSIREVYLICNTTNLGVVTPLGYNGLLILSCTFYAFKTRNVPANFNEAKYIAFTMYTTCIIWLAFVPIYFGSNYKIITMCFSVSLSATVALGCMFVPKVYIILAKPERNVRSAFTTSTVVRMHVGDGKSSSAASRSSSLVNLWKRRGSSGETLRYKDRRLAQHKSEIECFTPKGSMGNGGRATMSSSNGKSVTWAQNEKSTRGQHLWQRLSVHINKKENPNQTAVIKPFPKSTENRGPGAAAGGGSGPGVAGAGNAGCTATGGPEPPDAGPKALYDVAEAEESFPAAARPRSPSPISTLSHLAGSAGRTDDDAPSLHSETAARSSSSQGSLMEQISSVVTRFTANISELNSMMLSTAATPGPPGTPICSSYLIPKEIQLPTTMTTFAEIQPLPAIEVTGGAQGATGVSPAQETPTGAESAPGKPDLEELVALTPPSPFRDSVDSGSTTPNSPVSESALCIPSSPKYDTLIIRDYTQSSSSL
- assay.comment: Positive allosteric modulation at rat mGluR5 expressed in HEK293 cells by calcium mobilization assay
Answer as the number alone; pEC50 is minus log10 of concentration in mol/L.

Example entries begin here.
INSERT INTO measurements (structure_smiles, endpoint_value) VALUES
  ('Cc1cc(-n2ccc3nc(COc4ccccc4)cn3c2=O)ncc1F', 6.36),
  ('Cc1cccc(OCc2cn3c(=O)n(-c4ccc(F)cc4)ccc3n2)c1', 6.46),
  ('O=C1N(c2cccc(F)c2)CCc2nc(COc3ccccc3)cn21', 6.66),
  ('O=c1n(-c2ccc(F)cc2)ccc2nc(COc3ccccc3)cn12', 6.51),
  ('O=c1n(CC2CC2)ccc2nc(COc3ccccc3)cn12', 5.95);

Report pEC50 from Metabotropic glutamate receptor 5 (Rattus norvegicus, UniProt P31424) testing of O=C1N(c2ccc(F)cc2)CCc2nc(COc3ccc(F)cc3)cn21
6.71

Look up and report pEC50, with Metabotropic glutamate receptor 5 (Rattus norvegicus, UniProt P31424) as system, for Cc1cccc(-n2ccc3nc(COc4ccccc4)cn3c2=O)n1
5.45

Fetch value of pEC50 on Metabotropic glutamate receptor 5 (Rattus norvegicus, UniProt P31424) for Cc1cc2nc(COc3ccccc3)cn2c(=O)n1-c1ccc(F)cc1 .
5.68

GET pEC50 | system: Metabotropic glutamate receptor 5 (Rattus norvegicus, UniProt P31424) | item: O=c1n(-c2ccc(F)cc2)ccc2nc(COc3ccccn3)cn12
5.50

Enter measured pEC50, system Metabotropic glutamate receptor 5 (Rattus norvegicus, UniProt P31424), for the compound shown: O=C1N(c2ccc(F)cc2)CCc2nc(COc3ccccc3)cn21
7.07

# assay system Metabotropic glutamate receptor 5 (Rattus norvegicus, UniProt P31424): give pEC50 of O=c1n(-c2cccc(F)c2)ccc2nc(COc3ccccc3)cn12
6.29

Jot down pEC50 (Metabotropic glutamate receptor 5 (Rattus norvegicus, UniProt P31424)) of Cc1nc(-n2ccc3nc(COc4ccccc4)cn3c2=O)ccc1F .
6.43

---

- measurement.target: UniProtKB P31424
- assay.comment: Negative allosteric modulation at rat mGluR5 expressed in HEK293 cells by calcium mobilization assay relative to glutamate
- test.parameters: 30 uM
Reported pIC50 values for a set of compounds
pIC50 here: minus log base 10 of the concentration, concentration in moles per litre.

INSERT INTO results (structure_smiles, endpoint, endpoint_value) VALUES
  ('O=c1n(-c2ccc(F)cc2)ccc2nc(COc3ccccc3)c(Cl)n12', 'pIC50', 8.30);

Give me measured pIC50, please, for this compound: O=C1N(c2ccc(F)cc2)CCc2nc(COc3ccccc3)c(Cl)n21
6.88

Supply reported pIC50 belonging to this compound: Cc1c(COc2ccccc2)nc2n1C(=O)N(c1ccc(F)cc1)CC2
6.28

Assign pIC50 to the following record: Cc1cn(-c2ccc(F)cc2)c(=O)n2cc(COc3ccccc3)nc12
7.80

Reference source: ChEMBL document CHEMBL3399974
